- System: 171881-019-R-J1-PDC tumor spheroids, viability
- assay.explanation: Anticancer human tumor 171881-019-R-J1-PDC patient-derived invasive breast carcinoma cell line growth inhibition [GQUAD]
- condition: second compound 1 µM; first compound 0.000999 µM; hits give low values; spheroids with HUVEC and MSC
measurement.type: viability, T/C (%)
Provide the reading as a plain figure in %.

Reported viability, T/C for CCc1c2c(nc3ccc(O)cc13)-c1cc3c(c(=O)n1C2)COC(=O)[C@]3(O)CC + CN(C)c1ccc(Nc2c3ccc(NC(=O)CCN4CCCC4)cc3nc3cc(NC(=O)CCN4CCCC4)ccc23)cc1 : what is it?
16.3

Here is the next compound: Cn1ncnc1[C@H]1c2n[nH]c(=O)c3cc(F)cc(c23)N[C@@H]1c1ccc(F)cc1 + Cc1[nH]c2ccc(F)cc2c1-c1nc2c3cccnc3c3ncccc3c2[nH]1
79

Another: CC[C@@]1(O)C(=O)OCc2c1cc1n(c2=O)Cc2cc3c(CN(C)C)c(O)ccc3nc2-1 + CN(C)c1ccc(Nc2c3ccc(NC(=O)CCN4CCCC4)cc3nc3cc(NC(=O)CCN4CCCC4)ccc23)cc1
23.9

Also Cc1[nH]c2ccccc2c1CCNCc1ccc(/C=C/C(=O)NO)cc1 + CN(C)c1ccc(Nc2c3ccc(NC(=O)CCN4CCCC4)cc3nc3cc(NC(=O)CCN4CCCC4)ccc23)cc1 , if possible.
4.23

Follow-up item: Cn1ncnc1[C@H]1c2n[nH]c(=O)c3cc(F)cc(c23)N[C@@H]1c1ccc(F)cc1 + CN(C)c1ccc(Nc2c3ccc(NC(=O)CCN4CCCC4)cc3nc3cc(NC(=O)CCN4CCCC4)ccc23)cc1
35.8

---

- System: 171881-019-R-J1-PDC tumor spheroids, viability
- assay.explanation: Anticancer human tumor 171881-019-R-J1-PDC cell line growth inhibition [GQUAD];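 also: spheroids exposed to compounds for 7 days; 100% = DMSO vehicle control viability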
- condition: second compound 0.1 µM; first compound 3.16 µM; hits give low values; spheroids with HUVEC and MSC
measurement.type: viability, T/C

Please report the recorded viability, T/C for CC1COCCN1c1cc(C2(S(C)(=N)=O)CC2)nc(-c2ccnc3[nH]ccc23)n1 (stereo unspecified) + Cc1cnc(CNC(=O)c2c(=O)c3ccc(N4CCCN(C)CC4)nc3n3c2sc2ccccc23)cn1 .
18.7%

Try CC1COCCN1c1cc(C2(O)CC3CCC(C2)O3)c2cnn(-c3ccn[nH]3)c2n1 (stereo unspecified) + Cc1cnc(CNC(=O)c2c(=O)c3ccc(N4CCCN(C)CC4)nc3n3c2sc2ccccc23)cn1 next.
4.25%

Now give it for CC(C)n1c(=O)n(C)c2cnc3cc(F)c(-c4ccc(OCCCN5CCCCC5)nc4)cc3c21 + Cc1[nH]c2ccc(F)cc2c1-c1nc2c3cccnc3c3ncccc3c2[nH]1 too.
51.7%

Another compound to look at: C=CCn1c(=O)c2cnc(Nc3ccc(N4CCN(C)CC4)cc3)nc2n1-c1cccc(C(C)(C)O)n1 + Cc1cnc(CNC(=O)c2c(=O)c3ccc(N4CCCN(C)CC4)nc3n3c2sc2ccccc23)cn1
22.6%

What do you have for Nc1ccn(C2OC(CO)C(O)C2(F)F)c(=O)n1 (stereo unspecified) + Cc1[nH]c2ccc(F)cc2c1-c1nc2c3cccnc3c3ncccc3c2[nH]1 ?
35.9%

How about O=C(NO)c1cnc(N2CCN(S(=O)(=O)c3ccc4ccccc4c3)CC2)nc1 + Cc1cnc(CNC(=O)c2c(=O)c3ccc(N4CCCN(C)CC4)nc3n3c2sc2ccccc23)cn1 ?
0.07%
